target_entity: M1 muscarinic receptor (Homo sapiens, UniProt P11229)
Construct: expressed in transfected cells; host or cells: CHO (M1-CHO)
Sequence (P11229 whole entry): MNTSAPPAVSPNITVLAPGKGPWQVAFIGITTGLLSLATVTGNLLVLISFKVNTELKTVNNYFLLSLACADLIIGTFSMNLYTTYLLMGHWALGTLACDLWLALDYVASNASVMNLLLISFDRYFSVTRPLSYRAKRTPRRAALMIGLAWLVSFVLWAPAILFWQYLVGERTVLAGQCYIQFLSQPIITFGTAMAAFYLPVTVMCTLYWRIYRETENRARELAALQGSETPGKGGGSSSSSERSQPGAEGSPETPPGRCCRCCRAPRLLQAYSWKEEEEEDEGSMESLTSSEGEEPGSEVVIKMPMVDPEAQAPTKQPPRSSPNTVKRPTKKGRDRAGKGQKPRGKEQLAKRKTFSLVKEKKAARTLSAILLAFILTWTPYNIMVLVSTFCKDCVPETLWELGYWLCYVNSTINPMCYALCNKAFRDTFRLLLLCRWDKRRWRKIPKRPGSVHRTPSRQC
assay_details: Functional mobilization of intracellular calcium (FLIPR) in M1-CHO cells
Format: cell-based
stated_conditions: M1-CHO cells, calcium mobilization (FLIPR)
reported_metric: EC50

compound | reported_result
CC(=O)N1CC2(CCN(CC3CCN(C(=O)OC(C)C)CC3)CC2)c2cc(C)ccc21 | 100 to 1000 nM
COC(=O)N1C2CCC1CC(N1CCC3(CC1)CN(S(C)(=O)=O)c1ccc(F)cc13)C2 (centres unmarked) | < 100 nM
Cc1ccc2c(c1)C1(CCN(C3CC4CCC(C4)C3)CC1)CN2 (centres unmarked) | 100 to 1000 nM
CC(=O)N1CC2(CCN(CC3CCN(C(=O)O[C@@H]4CCOC4)CC3)CC2)c2cc(C)ccc21 | < 100 nM
CC(=O)N1CC2(CCN(C3CCCC(C(F)(F)F)C3)CC2)c2cc(F)ccc21 (centres unmarked) | > 1000 nM
CC(=O)N1CC2(CCN(C3CCN(C(=O)OCCF)C3)CC2)c2cc(F)ccc21 (centres unmarked) | < 100 nM
CCCOC(=O)N1C2CCC1CC(N1CCC3(CC1)CN(C(=O)OC)c1ccc(F)cc13)C2 (centres unmarked) | 100 to 1000 nM
c1ccc2c(c1)NCC21CCN(C2CC3CCC(C3)C2)CC1 (centres unmarked) | 100 to 1000 nM
Fc1ccc2c(c1)C1(CCN(C[C@H]3C[C@H]4C=C[C@H]3C4)CC1)CO2 | < 100 nM
COCCOC(=O)N1C2CCC1CC(N1CCC3(CC1)COc1ccc(F)cc13)C2 (centres unmarked) | 100 to 1000 nM
CCOC(=O)N1CCC(N2CCC3(CC2)CN(C(=O)c2ccc4c(c2)OCO4)c2ccc(F)cc23)CC1 | < 100 nM
